Source of measurements: the supplement of paper PMC9233669

test system: biotinyl-Trp-oxazolone; experiment: self-aminoacylation, catalytic enhancement (BWO) (fold over background); higher = more active; k-Seq, kA / k0A0; sequences stand for … in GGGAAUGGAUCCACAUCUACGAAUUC…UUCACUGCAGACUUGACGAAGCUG
Variants at the floor of the assay were thinned out.
Decision: self-aminoacylation >= 5 yields Y, all other cases yield N.

Challenge: Decide: is the reported value of self-aminoacylation for AUUACGCUGGUCAUCAAGUGA [Fam2.1 aminoacylation ribozyme variant] equal to or greater than 5?
Response given: N

---
Challenge: Decide: is the reported value of self-aminoacylation for AUUCACCUAGGUCAGCGGGGG [Fam2.2 aminoacylation ribozyme variant] equal to or greater than 5?
Response given: Y

Challenge: Decide: is the reported value of self-aminoacylation for CCACUUCCAACAAUCGGUCUG [Fam1A.1 aminoacylation ribozyme variant] equal to or greater than 5?
Response given: N

Challenge: Decide: is the reported value of self-aminoacylation for ACUAGCCUGGUCAUCGAGUGA [Fam2.1 aminoacylation ribozyme variant] equal to or greater than 5?
Response given: Y

Challenge: Decide: is the reported value of self-aminoacylation for AUAACCCUGGUCAUCGAGAGA [Fam2.1 aminoacylation ribozyme variant] equal to or greater than 5?
Response given: N

Challenge: Decide: is the reported value of self-aminoacylation for AUUCACCGCGGUCAUCGGGUG [Fam2.2 aminoacylation ribozyme variant] equal to or greater than 5?
Response given: Y

Challenge: Decide: is the reported value of self-aminoacylation for AUUACCCUGGAAAUCGAGUGA [Fam2.1 aminoacylation ribozyme variant] equal to or greater than 5?
Response given: Y

Challenge: Decide: is the reported value of self-aminoacylation for AUUUACCUCGGUCAUCGGGUG [Fam2.2 aminoacylation ribozyme variant] equal to or greater than 5?
Response given: Y

Challenge: Decide: is the reported value of self-aminoacylation for AUUCACAUAGGUCAUCGGGGG [Fam2.2 aminoacylation ribozyme variant] equal to or greater than 5?
Response given: N
